TARGET: HiBiT tagged Wee1 (Homo sapiens)
ASSAY_METHOD_TEXT: Wee1 protein degradation assay (HiBiT assay)
Assay type: cell-based
CONDITION_CONTEXT: engineered HT-1080 cells, 20 hours; maximum percentage of Wee1 degradation; read-out: HiBiT Wee1: Dmax
Items are presented alongside their recorded Dmax.

Known results for compounds:
{"COMPOUND": "C=CCn1c(=O)c2cnc(Nc3ccc(N4CCN(CC5CCN(c6cccc7c6n(C)c(=O)n7C6CCC(=O)NC6=O)CC5)CC4)cc3)nc2n1-c1cccc(C(C)(C)O)n1 (stereo not drawn)", "RESULT": "50 to 75%"}
{"COMPOUND": "O=C1CCC(N2C(=O)c3ccc(N4CCC(CN5CCC(c6ccc(Nc7ncc8c(=O)n(-c9c(Cl)cccc9Cl)c9nccn9c8n7)cc6)CC5)CC4)cc3C2=O)C(=O)N1 (stereo not drawn)", "RESULT": "50 to 75%"}
{"COMPOUND": "C=CCn1c(=O)c2cnc(Nc3ccc(N4CCN(CC5CCN(c6ncc(NC7CCC(=O)NC7=O)cc6Cl)CC5)CC4)cc3)nc2n1-c1ccc2c(n1)[C@@](O)(CC)CC2 (stereo partly drawn)", "RESULT": "> 75%"}
{"COMPOUND": "C=CCn1c(=O)c2cnc(Nc3ccc(N4CCN(CC5CCN(c6ccc7c(N8CCC(=O)NC8=O)nn(C)c7c6)CC5)CC4)c(C)c3)nc2n1-c1ccc2c(n1)[C@@](O)(CC)CC2", "RESULT": "50 to 75%"}
{"COMPOUND": "C=CCn1c(=O)c2cnc(Nc3ccc(N4CCN(C5CCN(c6ncc(NC7CCC(=O)NC7=O)cc6F)CC5)CC4)cc3)nc2n1-c1ccc2c(n1)[C@@](O)(CC)CC2 (stereo partly drawn)", "RESULT": "> 75%"}

What does the record list as Dmax for COc1ccc(C(=O)N2CCC(CN3CCN(Cc4ccc(Nc5ncc6c(=O)n(-c7c(Cl)cccc7Cl)c7nccn7c6n5)cc4)CC3)CC2)cc1N1CCC(=O)NC1=O ?
< 50%

What does the record list as Dmax for C=CCn1c(=O)c2cnc(Nc3ccc(N4CCN(CC5CCN(c6ccc7c(C8CCC(=O)NC8=O)nn(C)c7c6)CC5)CC4)cc3)nc2n1-c1cccc(C(C)(C)O)n1 (stereo not drawn) ?
50 to 75%

What does the record list as Dmax for C=CCn1c(=O)c2cnc(Nc3ccc(N4CCC(CN5CCC(c6ccc7c(N8CCC(=O)NC8=O)nn(C)c7c6)CC5)CC4)cc3)nc2n1-c1cccc(C(C)(C)O)n1 ?
> 75%

What does the record list as Dmax for C=CCn1c(=O)c2cnc(Nc3ccc(N4CCC(N5CCC(c6ccc(NC7CCC(=O)NC7=O)cc6)CC5)CC4)cc3)nc2n1-c1cccc(C(C)(C)O)n1 (stereo not drawn) ?
> 75%

What does the record list as Dmax for C=CCn1c(=O)c2cnc(Nc3ccc(N4CCN(CC5CCN(c6ccc(NC7CCC(=O)NC7=O)cc6F)CC5)[C@H](COC)C4)cc3)nc2n1-c1ccc2c(n1)[C@@](O)(CC)CC2 (stereo partly drawn) ?
> 75%

====

TARGET: HiBiT tagged Wee1 (Homo sapiens, UniProt P30291)
Sequence (P30291 whole entry): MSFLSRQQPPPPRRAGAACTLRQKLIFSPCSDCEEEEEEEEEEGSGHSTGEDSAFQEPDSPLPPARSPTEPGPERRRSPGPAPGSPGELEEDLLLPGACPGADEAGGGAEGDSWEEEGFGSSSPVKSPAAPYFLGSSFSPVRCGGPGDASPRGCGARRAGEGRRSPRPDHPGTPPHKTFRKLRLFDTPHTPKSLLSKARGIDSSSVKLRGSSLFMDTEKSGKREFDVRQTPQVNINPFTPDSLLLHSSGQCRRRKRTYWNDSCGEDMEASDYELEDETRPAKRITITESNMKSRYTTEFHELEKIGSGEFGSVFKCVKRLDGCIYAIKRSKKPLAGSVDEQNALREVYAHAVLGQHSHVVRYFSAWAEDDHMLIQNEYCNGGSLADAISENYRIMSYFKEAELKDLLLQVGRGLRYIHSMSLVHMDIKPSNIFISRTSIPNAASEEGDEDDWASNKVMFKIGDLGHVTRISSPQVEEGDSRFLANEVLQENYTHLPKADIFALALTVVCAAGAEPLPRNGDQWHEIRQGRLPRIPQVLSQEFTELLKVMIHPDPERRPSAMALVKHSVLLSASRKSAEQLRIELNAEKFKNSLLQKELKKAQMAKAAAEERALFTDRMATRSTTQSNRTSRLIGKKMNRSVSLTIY
ASSAY_METHOD_TEXT: Wee1 protein degradation assay (HiBiT assay)
Assay type: cell-based
CONDITION_CONTEXT: engineered HT-1080 cells, 20 hours; maximum percentage of Wee1 degradation; read-out: HiBiT Wee1: Dmax
Items are presented alongside their recorded Dmax.

Known results for compounds:
{"COMPOUND": "C=CCn1c(=O)c2cnc(Nc3ccc(N4CC5(CC(N6CCN(c7ccc(NC8CCC(=O)NC8=O)cc7F)CC6)C5)C4)cc3)nc2n1-c1ccc2c(n1)[C@@](O)(CC)CC2 (stereo partly shown) [Compound 173]", "QUANTITY_KIND": "Dmax", "RESULT": "> 75%"}
{"COMPOUND": "C=CCn1c(=O)c2cnc(Nc3ccc(N4CCC(CN5CCN(c6cc7c(cc6F)C(=O)N(C6CCC(=O)NC6=O)C7=O)CC5)CC4)cc3)nc2n1-c1cccc(C(C)(C)O)n1 (stereo not shown) [Compound 57]", "QUANTITY_KIND": "Dmax", "RESULT": "50 to 75%"}

What does the record list as Dmax for C=CCn1c(=O)c2cnc(Nc3ccc(C4CCN(CN5CCN(c6ccc7c(N8CCC(=O)NC8=O)nn(C)c7c6)CC5)CC4)cc3)nc2n1-c1cccc(C(C)(C)O)n1 [Compound 89] ?
> 75%

What does the record list as Dmax for C=CCn1c(=O)c2cnc(Nc3ccc(N4CCN(CCCOc5ccc6c(c5)C(=O)N(C5CCC(=O)NC5=O)C6=O)CC4)cc3)nc2n1-c1cccc(C(C)(C)O)n1 (stereo not shown) [Compound 62] ?
> 75%

What does the record list as Dmax for C=CCn1c(=O)c2cnc(Nc3ccc(N4CCN(CC5CCN(c6ccc(NC7CCC(=O)NC7=O)cc6F)CC5)CC4)cc3)nc2n1-c1ccc2c(n1)[C@@](O)(CC)CC2 (mixture of isomers) [Compound 110] ?
> 75%

What does the record list as Dmax for C=CCn1c(=O)c2cnc(Nc3ccc(N4CCN(CC5CCN(c6ccc(NC7CCC(=O)NC7=O)cc6F)CC5)CC4)cc3)nc2n1-c1ccc2c(n1)[C@@](C)(O)CC2 (stereo partly shown) [Compound 113] ?
> 75%

What does the record list as Dmax for C=CCn1c(=O)c2cnc(Nc3ccc(N4CCC(CN(C)C5CCN(c6cccc7c6n(C)c(=O)n7C6CCC(=O)NC6=O)CC5)CC4)cc3)nc2n1-c1cccc(C(C)(C)O)n1 (stereo not shown) [Compound 61] ?
50 to 75%

What does the record list as Dmax for C=CCn1c(=O)c2cnc(Nc3ccc(N4CCC(CN5CCN(c6ccc7c(N8CCC(=O)NC8=O)nn(C)c7c6)CC5)CC4)cc3)nc2n1-c1ccc2c(n1)[C@](C)(O)CC2 [Compound 127] ?
> 75%

What does the record list as Dmax for C=CCn1c(=O)c2cnc(Nc3ccc(N4CCC(CN5CCN(c6ccc(NC7CCC(=O)NC7=O)cc6F)CC5)CC4)c(C)c3)nc2n1-c1ccc2c(n1)[C@](C)(O)CC2 (stereo partly shown) [Compound 132] ?
> 75%

What does the record list as Dmax for C=CCn1c(=O)c2cnc(Nc3ccc(N4CCN(C5CCN(c6ccc(NC7CCC(=O)NC7=O)cc6F)CC5)CC4)cc3)nc2n1-c1ccc2c(n1)[C@@](O)(CC)CC2 (stereo partly shown) [Compound 155] ?
> 75%

====

ASSAY_METHOD_TEXT: Pharmacokinetic study in mice (IV and PO)
Assay type: in vivo
CONDITION_CONTEXT: mouse, plasma; PO (10 mg/kg), male CD1 mice; read-out: T½ (converted)
Procedure: Objective: the objective of this study was to determine the pharmacokinetics of test compound following intravenous (IV) and oral (PO) administration to male CD1 mice. […] The CD1 mice were administered with the test article intravenously via tail vein at 2 mg/kg or orally at 10 mg/kg. […] The plasma samples were stored at −75±15° C. until analyzed by LC-MS/MS. The PK parameters were calculated using non-compartmental model by Phoenix WinNonlin 6.1 (Linear/log trapezoidal).
QUANTITY_KIND: half-life (h)

1: C=CCn1c(=O)c2cnc(Nc3ccc(N4CCC(CN5CCN(c6ccc(NC7CCC(=O)NC7=O)cc6F)CC5)CC4)cc3)nc2n1-c1cccc(C(C)(C)O)n1 (centres unmarked)
2: C=CCn1c(=O)c2cnc(Nc3ccc(C4CCN(CC5CCN(c6cccc7c6n(C)c(=O)n7C6CCC(=O)NC6=O)CC5)CC4)cc3)nc2n1-c1cccc(C(C)(C)O)n1 (centres unmarked)
Lab note: check whether 1 or 2 shows the higher recorded half-life. # respond with the chosen item's label
2
(2: 7.2 h, 1: 3 h)

A: C=CCn1c(=O)c2cnc(Nc3ccc(N4CCC(CN5CCC(c6cccc7c6n(C)c(=O)n7C6CCC(=O)NC6=O)CC5)CC4)cc3)nc2n1-c1cccc(C(C)(C)O)n1 (centres unmarked)
B: C=CCn1c(=O)c2cnc(Nc3ccc(N4CCC(CN5CCC(c6ccc(NC7CCC(=O)NC7=O)cc6)CC5)CC4)cc3)nc2n1-c1cccc(C(C)(C)O)n1 (centres unmarked)
Lab note: check whether A or B shows the higher recorded half-life. # respond with the chosen item's label
A

====

TARGET: HiBiT tagged Wee1 (Homo sapiens, UniProt P30291)
ASSAY_METHOD_TEXT: Wee1 protein degradation assay (HiBiT assay)
Assay type: cell-based
CONDITION_CONTEXT: engineered HT-1080 cells, 20 hours
QUANTITY_KIND: DC50

Known results for compounds:
{"COMPOUND": "C=CCn1c(=O)c2cnc(Nc3ccc(N4CCN(CC5CN(c6ccc7c(c6)C(=O)N(C6CCC(=O)NC6=O)C7=O)C5)CC4)c(C)c3)nc2n1-c1cccc(C(C)(C)O)n1 (centres unmarked) [Compound 12]", "RESULT": "< 100 nM"}
{"COMPOUND": "COc1ccc(C(=O)N2CCC(CN3CCC(c4ccc(Nc5ncc6c(=O)n(-c7c(Cl)cccc7Cl)c7nccn7c6n5)cc4)CC3)CC2)cc1N1CCC(=O)NC1=O [Compound 26]", "RESULT": "> 1000 nM"}
{"COMPOUND": "C=CCn1c(=O)c2cnc(Nc3ccc(N4CCN(CC5CCN(c6ccc(NC7CCC(=O)NC7=O)cc6F)CC5)CC4)cc3)nc2n1-c1ccc2c(n1)[C@](C)(O)CC2 (single isomer, unassigned) [Compound 152-A]", "RESULT": "< 100 nM"}
{"COMPOUND": "C=CCn1c(=O)c2cnc(Nc3ccc(C4CCN(CC5CCN(c6ccc(N7CCC(=O)NC7=O)cc6)CC5)CC4)cc3)nc2n1-c1cccc(C(C)(C)O)n1 [Compound 146]", "RESULT": "> 1000 nM"}

Recorded DC50 for C=CCn1c(=O)c2cnc(Nc3ccc(C4CCN(C5CCN(c6cc7c(cc6F)C(=O)N(C6CCC(=O)NC6=O)C7=O)CC5)CC4)cc3)nc2n1-c1cccc(C(C)(C)O)n1 (centres unmarked) [Compound 44] with HiBiT tagged Wee1 (Homo sapiens, UniProt P30291), please?
< 100 nM
